Values compiled from PubChem BioAssay AID1259415.

- assay_text: qHTS Assay for inhibitors of the human cytomegalovirus (HCMV)
- test_parameters: HFF cells, HCMV-luciferase reporter, 72 h; at 57.5 µM
Out of some 410,000 compounds screened, about 18,000 (4.4%) were called active. About 7% were inconclusive and are not listed. No stated cut-off is given here; in the data, active means activity change below about -60%; inconclusive means no clear call, values can overlap the other calls; inactive means above about -39%. For the sample, actives were picked, then their nearest neighbours and some compounds at random.
Classes used: active, inactive

{"columns": ["compound", "assigned_label"],
 "data": [
  ["CCc1ccc(C2CC(=O)c3c([nH]c(C(=O)OCc4ccc(C)cc4)c3C)C2)cc1 (configuration not stated)", "inactive"],
  ["CCCCn1nc2ccccc2c1OCC", "inactive"],
  ["Cc1ccc(C)c(S(=O)(=O)N(C)c2ccc(OC(=O)C3CCN(C(=O)c4ccc(F)cc4)CC3)cc2)c1", "active"],
  ["Cc1nc(SCC(=O)NC2CCCC2)[nH]c(=O)c1C", "inactive"],
  ["CC1CCCN(CCOCCOc2ccccc2-c2ccccc2)C1 (configuration not stated)", "active"],
  ["CC(=O)N1CCCc2ccc(NS(=O)(=O)c3ccc(F)cc3F)cc21", "inactive"],
  ["O=C(COc1ccc2ccc(=O)oc2c1)NCC(O)c1ccccc1 (configuration not stated)", "inactive"],
  ["CCc1nn(CC(=O)Nc2cc(C)cc(C)c2)c(=O)c2cc3sccc3n12", "inactive"],
  ["CCOc1ccc(C2C3=C(CCCC3=O)N(CC(=O)O)C3=C2C(=O)CCC3)cc1", "inactive"],
  ["C=CCOC(=O)C1=C(C)NC(C)=C(C(=O)OCC=C)C1c1cccs1", "inactive"],
  ["CC(Oc1ccc(Br)cc1)C(=O)NC1CCCCCC1 (configuration not stated)", "inactive"],
  ["Cc1ccc(NC(=O)NNC(=O)c2sccc2-n2cccc2)cc1", "inactive"],
  ["COc1ccc(OC)c(-c2noc(N3CCN(c4cc(Cl)ccc4C)CC3)n2)c1", "inactive"],
  ["COc1ccc(Cc2nnnn2CC(=O)O)cc1", "inactive"],
  ["O=C(CS(=O)(=O)c1cccc2nsnc12)N1CCN(c2cccc(Cl)c2)CC1", "inactive"],
  ["O=C(Nc1ccc2ccccc2c1)Nc1ccc2snnc2c1", "active"],
  ["O=C(C1CC(=O)N(c2ccc(Br)cc2)C1)N1CCCC1 (configuration not stated)", "inactive"],
  ["CC(=CCOc1ccc2ccc(=O)oc2c1)C1=CC(=O)C(C)(C)O1", "active"],
  ["CC(C)CN(Cc1c(O)ccc2c(=O)c(-c3ccccc3)coc12)CC(C)C", "active"],
  ["CC(C)(C)c1ccc(C(=O)N2CCC(c3nc(-c4ccc(S(=O)(=O)N5CCCC5)cc4)no3)CC2)cc1", "inactive"],
  ["CCOC(=O)c1[nH]c2c(c1-c1ccccc1)C(=O)CC(c1ccc(Cl)cc1)C2 (configuration not stated)", "active"],
  ["CCOc1ccc2oc(C(=O)N(CC)CC(=O)Nc3ccc(NC(C)=O)cc3)c(C)c2c1", "inactive"],
  ["COc1cccc(CNC(=O)CCc2nc(-c3ccc(C)cc3)no2)c1", "inactive"],
  ["CCOC(=O)C1CCCN(C(=O)c2ccc(N(C)C)cc2)CC1 (configuration not stated)", "inactive"],
  ["CCOC(=O)C1CCCN(C(=O)c2ccc(C)c(F)c2)CC1 (configuration not stated)", "inactive"],
  ["COc1ccc(CNC(=O)CSc2nc3ccccc3nc2Cc2ccccc2)cc1", "inactive"],
  ["O=S(=O)(NCCc1nnc2ccc(SCc3ccc(Cl)cc3Cl)nn12)c1ccccc1", "inactive"]
]}
